tested on: Abutilon theophrasti (ABUTH); assay: Herbicidal glasshouse test, PRE application; assay type: in vivo; conditions: 130 g/ha; evaluated after 14 days; 100=total damage to plant, 0=no damage to plant
Quick reference for damage to plant, ABUTH, PRE Application among some compounds

{"COMPOUND": "Cn1nnnc1NC(=O)c1ccc(OC(F)(F)F)c(S(=O)(=O)NCC2CC2)c1Cl [Compound 1.001]", "TARGET_UNDER_TEST": "Abutilon theophrasti (ABUTH)", "damage to plant, ABUTH, PRE Application": 100}
{"COMPOUND": "CNS(=O)(=O)c1c(OC(F)(F)F)ccc(C(=O)Nc2nnnn2C)c1Cl [Compound 1.004]", "TARGET_UNDER_TEST": "Abutilon theophrasti (ABUTH)", "damage to plant, ABUTH, PRE Application": 100}
{"COMPOUND": "CN(C)S(=O)(=O)c1c(OC(F)(F)F)ccc(C(=O)Nc2nnnn2C)c1Cl [Compound 1.003]", "TARGET_UNDER_TEST": "Abutilon theophrasti (ABUTH)", "damage to plant, ABUTH, PRE Application": 90}
{"COMPOUND": "CCNS(=O)(=O)c1c(OC(F)(F)F)ccc(C(=O)Nc2nnnn2C)c1Cl [Compound 1.002]", "TARGET_UNDER_TEST": "Abutilon theophrasti (ABUTH)", "damage to plant, ABUTH, PRE Application": 80}
